Please go through the items and note down their binding signal.
- Test System: TDP-43 (Homo sapiens, UniProt Q13148 1-414)
- Sequence (Q13148 whole entry): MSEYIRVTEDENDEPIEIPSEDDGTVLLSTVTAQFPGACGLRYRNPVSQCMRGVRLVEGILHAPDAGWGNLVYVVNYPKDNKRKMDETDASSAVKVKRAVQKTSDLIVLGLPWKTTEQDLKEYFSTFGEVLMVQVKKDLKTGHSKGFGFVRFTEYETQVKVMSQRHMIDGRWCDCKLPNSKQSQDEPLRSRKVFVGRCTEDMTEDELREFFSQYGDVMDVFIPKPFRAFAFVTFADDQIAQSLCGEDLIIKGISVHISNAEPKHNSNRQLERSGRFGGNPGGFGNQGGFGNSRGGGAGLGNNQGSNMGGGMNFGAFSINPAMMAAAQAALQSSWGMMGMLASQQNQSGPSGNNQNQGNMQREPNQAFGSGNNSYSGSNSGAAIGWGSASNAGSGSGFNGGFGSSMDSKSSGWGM
- Experimental Details: RNA Bind-n-Seq with designed 260-mer pool; 25 mM Tris-HCl, 150 mM KCl, 3 mM MgCl2, BSA (printed 500 mg/mL), 20 units/mL SUPERase IN; pH not stated; 500 nM RNA pool, 1 h, 4 C; TDP-43 5, 50, 500 nM; high values mean tight binding
- Assay Conditions: protein: recombinant; tags: SBP (GST cleaved off with PreScission; pGEX-GST-SBP)
The full ranking holds about 9,900 sequences; the median of “r (bound/input frequency ratio)” is about 0.7, and the highest 2% start at about 6.5. This is one part of a sample in which the highest values are shown more often than they occur.

ENSMUSG00000058297.31|Spock2|65:69;73:86;95:106;120:126;135:144;150:175 (ssRNA) RNA: GGGAGUUCUACAGUCCGACGAUCGCUUCGAUAUCCGCAUGCUAACUUAGCAAAUGGAUCCGGAAGUCAGUGCGGAGGACCCUGGCUCCAGUGGGGGAGGACUGGGGACACACGCUACACACAUACACACAUAUGAGAACACACACAUACAUGUGAGAUGUGACACACACAUGUGAGAACACACAUACUGAGAACACACACACACACACACACACACACAUGUGAGUCACCCAAAGGUCCCUAUGUUAUUGAUUUUCAAAUGCACACUUUCACACACAAGGAUACACUAACAGACCAAAAUCAACUCUUGCGGUCGCACUAGUGUGGAAUUCUCGGGUGUCAAGG = 3.59 R (bound/input frequency ratio)

Turning to the following binder.
Which binding signal reading was recorded for the binder ENSMUSG00000058297.30|Spock2|71:75;79:92;101:112;126:132;141:150;156:181 (ssRNA) RNA: GGGAGUUCUACAGUCCGACGAUCGCUUCGAUAUCCGCAUGCUACAGGCAACUUAGCAAAUGGAUCCGGAAGUCAGUGCGGAGGACCCUGGCUCCAGUGGGGGAGGACUGGGGACACACGCUACACACAUACACACAUAUGAGAACACACACAUACAUGUGAGAUGUGACACACACAUGUGAGAACACACAUACUGAGAACACACACACACACACACACACACACAUGUGAGUCACCCAAAGGUCCCUAUGUUAUUGAUUUUCAAAUGCACACUUUCACACACAAGGAUACACUAACAGACCAACUCUUGCGGUCGCACUAGUGUGGAAUUCUCGGGUGUCAAGG ?
2.07 R (bound/input frequency ratio)
